# study-target: Ephrin type-B receptor 4 (Homo sapiens) (UniProt P54760)
# Sequence (P54760 whole entry): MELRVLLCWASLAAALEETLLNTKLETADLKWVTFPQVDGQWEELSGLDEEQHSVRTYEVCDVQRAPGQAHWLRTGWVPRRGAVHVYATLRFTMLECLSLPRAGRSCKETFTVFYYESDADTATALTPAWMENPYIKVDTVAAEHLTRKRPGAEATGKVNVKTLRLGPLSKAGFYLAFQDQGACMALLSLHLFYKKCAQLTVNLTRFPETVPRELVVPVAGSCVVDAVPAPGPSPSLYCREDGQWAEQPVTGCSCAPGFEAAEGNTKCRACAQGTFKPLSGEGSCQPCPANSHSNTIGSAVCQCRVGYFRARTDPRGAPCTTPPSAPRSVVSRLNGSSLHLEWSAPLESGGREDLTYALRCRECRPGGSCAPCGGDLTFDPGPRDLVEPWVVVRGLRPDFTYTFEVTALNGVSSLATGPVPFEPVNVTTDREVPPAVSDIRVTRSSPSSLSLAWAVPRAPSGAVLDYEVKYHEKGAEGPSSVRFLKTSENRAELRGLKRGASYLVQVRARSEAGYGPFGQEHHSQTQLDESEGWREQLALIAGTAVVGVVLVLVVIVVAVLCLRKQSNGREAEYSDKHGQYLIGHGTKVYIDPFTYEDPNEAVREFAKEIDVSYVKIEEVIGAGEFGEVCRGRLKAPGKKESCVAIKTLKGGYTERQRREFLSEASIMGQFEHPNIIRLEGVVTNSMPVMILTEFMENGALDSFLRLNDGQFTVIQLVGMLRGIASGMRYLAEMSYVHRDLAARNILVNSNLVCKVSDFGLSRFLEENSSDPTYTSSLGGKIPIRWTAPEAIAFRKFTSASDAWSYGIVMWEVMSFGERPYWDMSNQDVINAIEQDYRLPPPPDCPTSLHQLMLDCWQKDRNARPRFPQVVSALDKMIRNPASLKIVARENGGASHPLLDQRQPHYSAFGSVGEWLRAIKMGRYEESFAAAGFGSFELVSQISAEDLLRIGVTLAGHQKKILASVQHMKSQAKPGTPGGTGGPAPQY
# condition-info: at 0.1 µM
Record form. Attribute: inhibition. Fill in for each entry.
Give bare numbers, in %.

Example compounds with recorded inhibition:
| input-smiles | study-target | result-unit | inhibition |
| --- | --- | --- | --- |
| Cc1ccc(C(=O)NC2CCC2)cc1-c1ccc(C(=O)NCC2CC2)cc1 | Ephrin type-B receptor 4 (Homo sapiens) (UniProt P54760) | % | 1.02 |
| CCC(=O)Nc1ccc(C)c(-c2ccc(C(=O)NCC3CC3)cc2)c1 | Ephrin type-B receptor 4 (Homo sapiens) (UniProt P54760) | % | 0.55 |
| O=C(Nc1n[nH]c2cc(-c3ccccc3)ccc12)C1CC1 | Ephrin type-B receptor 4 (Homo sapiens) (UniProt P54760) | % | 2.92 |
| C/C(Nc1ccc(S(N)(=O)=O)cc1)=C1/C(=O)Nc2ccccc21 | Ephrin type-B receptor 4 (Homo sapiens) (UniProt P54760) | % | -2.17 |

Alright, here's another compound for you.
input: Give the reported inhibition for `Fc1ccc(-c2ncn(C3CCNCC3)c2-c2ccnc(Oc3ccc(F)c(F)c3)n2)cc1` (system: Ephrin type-B receptor 4 (Homo sapiens) (UniProt P54760)).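 Note: each value is a mean percent inhibition.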
output: -4.11

---

# study-target: Serine/threonine-protein kinase TBK1 (Homo sapiens) (UniProt Q9UHD2);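 note: values are mean inhibition of TBK1, screened as part of the GSK published kinase inhibitor set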
# Sequence (Q9UHD2 whole entry): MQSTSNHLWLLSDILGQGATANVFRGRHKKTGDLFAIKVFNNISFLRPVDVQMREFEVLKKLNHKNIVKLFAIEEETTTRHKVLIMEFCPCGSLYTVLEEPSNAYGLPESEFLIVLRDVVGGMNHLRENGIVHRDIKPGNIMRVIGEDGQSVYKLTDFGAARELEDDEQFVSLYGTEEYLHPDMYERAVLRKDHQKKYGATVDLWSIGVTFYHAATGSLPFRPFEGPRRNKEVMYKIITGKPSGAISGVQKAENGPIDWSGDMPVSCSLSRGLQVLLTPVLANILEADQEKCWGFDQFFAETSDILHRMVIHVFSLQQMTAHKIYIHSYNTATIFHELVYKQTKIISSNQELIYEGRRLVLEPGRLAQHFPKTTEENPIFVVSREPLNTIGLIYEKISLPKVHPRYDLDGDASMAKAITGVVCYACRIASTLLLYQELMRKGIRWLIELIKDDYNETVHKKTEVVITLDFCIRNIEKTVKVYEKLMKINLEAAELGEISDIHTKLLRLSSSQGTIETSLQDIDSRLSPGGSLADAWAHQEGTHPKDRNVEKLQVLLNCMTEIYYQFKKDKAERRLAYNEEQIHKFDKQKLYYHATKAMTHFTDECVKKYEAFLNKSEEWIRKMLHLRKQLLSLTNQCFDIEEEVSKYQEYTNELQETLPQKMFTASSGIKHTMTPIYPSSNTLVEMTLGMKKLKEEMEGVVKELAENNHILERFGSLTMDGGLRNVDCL
# condition-info: at 1 µM
Would you mind classing the entries by inhibition? Ranges: lower range: < 3%; middle range: ≥ 3% and < 7%; upper range: ≥ 7%

| compound | study-target | label |
| --- | --- | --- |
| C[C@@H](Oc1cc(-n2cnc3ccc(OCC4CCN(C)CC4)cc32)sc1C(N)=O)c1ccccc1Cl | Serine/threonine-protein kinase TBK1 (Homo sapiens) (UniProt Q9UHD2) | middle range |
| Fc1ccc(-c2ncn(C3CCNCC3)c2-c2ccnc(Oc3ccc(F)c(F)c3)n2)cc1 | Serine/threonine-protein kinase TBK1 (Homo sapiens) (UniProt Q9UHD2) | middle range |
| FC(F)(F)c1cccc(Nc2nccc(-c3cnn4nc(-c5ccccc5)ccc34)n2)c1 | Serine/threonine-protein kinase TBK1 (Homo sapiens) (UniProt Q9UHD2) | middle range |

# evaluate next
input: Which class holds `Cc1ccc(NC(=O)c2ccoc2)cc1-c1ccc(C(=O)NCC2CC2)cc1` ?
output: lower range

---

# System: Tyrosine-protein kinase ABL1 (Homo sapiens), P00519 [Y253F]
# condition-info: at 1 µM
Returns one of t or f; t when inhibition is >= 20%.

These recorded examples may help you get a feel for the data.
| molecule | label |
| --- | --- |
| NC(=O)c1ccc(Oc2nccc(-c3c(-c4ccc(F)cc4)ncn3C3CCNCC3)n2)cc1 | f |
| COc1ccc(-c2ccc3c(NC(=O)C4CC4)n[nH]c3n2)cc1 | f |
| O=C(Nc1n[nH]c2cc(-c3ccccc3)ccc12)C1CC1 | t |

# evaluate next
input: Confirm if inhibition reported for the molecule `Fc1ccc(-c2ncn(C3CCNCC3)c2-c2ccnc(Oc3ccc(F)c(F)c3)n2)cc1` is 20% or above.
output: f

---

# study-target: Ribosomal protein S6 kinase alpha-6 (Homo sapiens) (UniProt Q9UK32);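 note: each value is a mean inhibition of RSK4 from a GSK PKIS panel screen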
# Sequence (Q9UK32 whole entry): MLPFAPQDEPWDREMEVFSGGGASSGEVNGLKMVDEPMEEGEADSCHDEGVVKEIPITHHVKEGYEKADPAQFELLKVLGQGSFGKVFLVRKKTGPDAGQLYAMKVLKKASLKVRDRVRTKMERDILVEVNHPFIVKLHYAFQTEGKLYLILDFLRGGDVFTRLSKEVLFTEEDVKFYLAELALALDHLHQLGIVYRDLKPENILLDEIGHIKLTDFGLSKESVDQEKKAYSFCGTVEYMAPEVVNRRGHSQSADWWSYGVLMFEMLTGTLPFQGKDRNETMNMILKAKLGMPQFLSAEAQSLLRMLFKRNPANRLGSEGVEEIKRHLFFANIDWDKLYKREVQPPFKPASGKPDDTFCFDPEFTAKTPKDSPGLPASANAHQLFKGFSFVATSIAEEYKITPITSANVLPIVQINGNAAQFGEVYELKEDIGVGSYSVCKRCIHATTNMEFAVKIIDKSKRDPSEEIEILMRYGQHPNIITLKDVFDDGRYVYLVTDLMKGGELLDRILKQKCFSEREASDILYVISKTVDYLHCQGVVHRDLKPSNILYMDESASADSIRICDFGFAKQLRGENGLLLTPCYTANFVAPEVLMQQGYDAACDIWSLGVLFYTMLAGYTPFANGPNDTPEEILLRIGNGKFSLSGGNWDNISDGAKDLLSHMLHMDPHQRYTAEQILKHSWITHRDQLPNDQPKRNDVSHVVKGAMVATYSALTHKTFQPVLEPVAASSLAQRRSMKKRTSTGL
# condition-info: at 1 µM
Record form. Attribute: inhibition. Fill in for each entry.
Give bare numbers, in %.

Example compounds with recorded inhibition:
| compound | result-unit | inhibition |
| --- | --- | --- |
| COc1cc2ncn(-c3cc(OCc4cccs4)c(C(N)=O)s3)c2cc1OC | % | 9.08 |
| Fc1ccc(-c2ncn(CCCN3CCOCC3)c2-c2ccncc2)cc1 | % | -0.21 |
| NS(=O)(=O)c1ccc(Nc2cc(-c3ccc(O)c(F)c3)n[nH]2)cc1 | % | 59.5 |
| O=C(Nc1n[nH]c2nc(-c3ccco3)ccc12)C1CC1 | % | 0.71 |

Hi there! I need inhibition for each item below, if you can.
1. Cc1nnc(-c2ccc(C)c(-c3ccc(C(=O)NCc4ccc(Cl)cc4)cc3)c2)o1
2. NC(=O)Cc1ccccc1Oc1nccc(-c2c(-c3ccc(F)cc3)ncn2C2CCNCC2)n1

output:
1. 2.38
2. 2.01

Hi there! I need inhibition for each item below, if you can.
1. c1ccc(Oc2ccc(Nc3ncc(-c4ccccc4)o3)cc2)cc1
2. Nc1nccc(-c2c(-c3ccc(F)cc3)ncn2C2CCC(O)CC2)n1 (stereo not given)
3. NCc1ccc(-n2c(-c3nonc3N)nc3cnccc32)cc1
4. COc1cc2ncn(-c3cc(OCCc4ccccc4)c(C(N)=O)s3)c2cc1OC

output:
1. 0.25
2. 3.39
3. 36.2
4. 2.25

The origin of these recorded values is ChEMBL document CHEMBL1961873.
